Entry source: paper PMC12000874

target.or.test.system: SigB (sigma B);RbpA (Mycobacterium …, UniProt P9WGI5;P9WHJ5 1-323;1-111, |)
Sequence (P9WGI5 whole entry, chain 1 of 2, the tested form may be a part): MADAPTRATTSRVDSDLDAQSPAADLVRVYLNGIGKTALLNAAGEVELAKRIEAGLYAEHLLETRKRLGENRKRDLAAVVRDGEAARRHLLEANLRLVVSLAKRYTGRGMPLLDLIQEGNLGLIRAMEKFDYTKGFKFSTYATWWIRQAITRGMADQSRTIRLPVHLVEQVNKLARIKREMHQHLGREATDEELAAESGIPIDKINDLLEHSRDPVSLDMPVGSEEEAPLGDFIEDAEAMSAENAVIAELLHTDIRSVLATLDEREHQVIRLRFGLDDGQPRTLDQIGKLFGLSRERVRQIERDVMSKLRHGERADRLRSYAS
Sequence (P9WHJ5 whole entry, chain 2 of 2, the tested form may be a part): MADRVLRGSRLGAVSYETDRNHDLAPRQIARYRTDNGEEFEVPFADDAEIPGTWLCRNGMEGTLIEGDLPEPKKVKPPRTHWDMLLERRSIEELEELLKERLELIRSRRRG
method: microfluidic diffusional sizing; apparent; RbpA; no Mg2+
experimental.setup: protein: recombinant;recombinant; tags: 6xHis;6xHis; copies: 1;1; label: 5' fluorescein (MDS); single strand
assay.metric: Kd

binder="TGCGTATAATGTGTGGA (ssDNA) [-10 ssDNA (17-mer, lacUV5 nontemplate, TATAAT)]" assay_metric=Kd result="~125 nM"
